# assay_remarks: total protein half-life in vivo (active degradation + dilution); higher = more stable protein
# setup_conditions: wild type E. coli NCM3722; growth: C-lim chemostat; doubling time 3 h

{"monomer_sequence": "MTQFASPVLHSLLDTDAYKLHMQQAVFHHYYDVHVAAEFRCRGDDLLGIYADAIREQVQAMQHLRLQDDEYQWLSALPFFKADYLNWLREFRFNPEQVTVSNDNGKLDIRLSGPWREVILWEVPLLAVISEMVHRYRSPQADVAQALDTLESKLVDFSALTAGLDMSRFHLMDFGTRRRFSREVQETIVKRLQQESWFVGTSNYDLARRLSLTPMGTQAHEWFQAHQQISPDLANSQRAALAAWLEEYPDQLGIALTDCITMDAFLRDFGVEFASRYQGLRHDSGDPVEWGEKAIAHYEKLGIDPQSKTLVFSDNLDLRKAVELYRHFSSRVQLSFGIGTRLTCDIPQVKPLNIVIKLVECNGKPVAKLSDSPGKTICHDKAFVRALRKAFDLPHIKKAS", "total protein half-life in vivo": "2.28 h"}

---

# assay_remarks: total protein half-life in vivo (active degradation + dilution); higher = more stable protein
# setup_conditions: E. coli NCM3722 delta-smpB; growth: N-lim chemostat; doubling time 6 h
total protein half-life in vivo: recorded values

{"monomer_sequence": "MSVIETATVPLAQQQADALLNVKDLRVTFSTPDGDVTAVNDLNFSLRAGETLGIVGESGSGKSQTAFALMGLLAANGRIGGSATFNGREILNLPEHELNKLRAEQISMIFQDPMTSLNPYMRVGEQLMEVLMLHKNMSKAEAFEESVRMLDAVKMPEARKRMKMYPHEFSGGMRQRVMIAMALLCRPKLLIADEPTTALDVTVQAQIMTLLNELKREFNTAIIMITHDLVVVAGICDKVLVMYAGRTMEYGNARDVFYQPVHPYSIGLLNAVPRLDAEGETMLTIPGNPPNLLRLPKGCPFQPRCPHAMEICSSAPPLEEFTPGRLRACFKPVEELL", "units": "h", "total protein half-life in vivo": 5.34}
{"monomer_sequence": "MSEIKDVIVQGLWKNNSALVQLLGLCPLLAVTSTATNALGLGLATTLVLTLTNLTISTLRHWTPAEIRIPIYVMIIASVVSAVQMLINAYAFGLYQSLGIFIPLIVTNCIVVGRAEAFAAKKGPALSALDGFSIGMGATCAMFVLGSLREIIGNGTLFDGADALLGSWAKVLRVEIFHTDSPFLLAMLPPGAFIGLGLMLAGKYLIDERMKKRRAEAAAERALPNGETGNV", "units": "h", "total protein half-life in vivo": 4.72}
{"monomer_sequence": "MFKRRYVTLLPLFVLLAACSSKPKPTETDTTTGTPSGGFLLEPQHNVMQMGGDFANNPNAQQFIDKMVNKHGFDRQQLQEILSQAKRLDSVLRLMDNQAPTTSVKPPSGPNGAWLRYRKKFITPDNVQNGVVFWNQYEDALNRAWQVYGVPPEIIVGIIGVETRWGRVMGKTRILDALATLSFNYPRRAEYFSGELETFLLMARDEQDDPLNLKGSFAGAMGYGQFMPSSYKQYAVDFSGDGHINLWDPVDAIGSVANYFKAHGWVKGDQVAVMANGQAPGLPNGFKTKYSISQLAAAGLTPQQPLGNHQQASLLRLDVGTGYQYWYGLPNFYTITRYNHSTHYAMAVWQLGQAVALARVQ", "units": "h", "total protein half-life in vivo": 5.5}
{"monomer_sequence": "MIYPDEAMLYAPVEWHDCSEGFEDIRYEKSTDGIAKITINRPQVRNAFRPLTVKEMIQALADARYDDNIGVIILTGAGDKAFCSGGDQKVRGDYGGYKDDSGVHHLNVLDFQRQIRTCPKPVVAMVAGYSIGGGHVLHMMCDLTIAADNAIFGQTGPKVGSFDGGWGASYMARIVGQKKAREIWFLCRQYDAKQALDMGLVNTVVPLADLEKETVRWCREMLQNSPMALRCLKAALNADCDGQAGLQELAGNATMLFYMTEEGQEGRNAFNQKRQPDFSKFKRNP [P0ABU0]", "units": "h", "total protein half-life in vivo": 3.8}
{"monomer_sequence": "MSNAQEAVKTRHKETSLIFPVLALVVLFLWGSSQTLPVVIAINLLALIGILSSAFSVVRHADVLAHRLGEPYGSLILSLSVVILEVSLISALMATGDAAPTLMRDTLYSIIMIVTGGLVGFSLLLGGRKFATQYMNLFGIKQYLIALFPLAIIVLVFPMALPAANFSTGQALLVALISAAMYGVFLLIQTKTHQSLFVYEHEDDSDDDDPHHGKPSAHSSLWHAIWLIIHLIAVIAVTKMNASSLETLLDSMNAPVAFTGFLVALLILSPEGLGALKAVLNNQVQRAMNLFFGSVLATISLTVPVVTLIAFMTGNELQFALGAPEMVVMVASLVLCHISFSTGRTNVLNGAAHLALFAAYLMTIFA", "units": "h", "total protein half-life in vivo": 6.69}
{"monomer_sequence": "MSAVLTAEQALKLVGEMFVYHMPFNRALGMELERYEKEFAQLAFKNQPMMVGNWAQSILHGGVIASALDVAAGLVCVGSTLTRHETISEDELRQRLSRMGTIDLRVDYLRPGRGERFTATSSLLRAGNKVAVARVELHNEEQLYIASATATYMVG [P0ADP2]", "units": "h", "total protein half-life in vivo": 2.22}
{"monomer_sequence": "MDTELLKTFLEVSRTRHFGRAAESLYLTQSAVSFRIRQLENQLGVNLFTRHRNNIRLTAAGEKLLPYAETLMSTWQAARKEVAHTSRHNEFSIGASASLWECMLNQWLGRLYQNQDAHTGLQFEARIAQRQSLVKQLHERQLDLLITTEAPKMDEFSSQLLGYFTLALYTSAPSKLKGDLNYLRLEWGPDFQQHEAGLIGADEVPILTTSSAELAQQQIAMLNGCTWLPVSWARKKGGLHTVVDSTTLSRPLYAIWLQNSDKNALIRDLLKINVLDEVY [P0A8R9]", "units": "h", "total protein half-life in vivo": 4.1}
{"monomer_sequence": "MERNVTLDFVRGVAILGILLLNISAFGLPKAAYLNPAWYGAITPRDAWTWAFLDLIGQVKFLTLFALLFGAGLQMLLPRGRRWIQSRLTLLVLLGFIHGLLFWDGDILLAYGLVGLICWRLVRDAPSVKSLFNTGVMLYLVGLGVLLLLGLISDSQTSRAWTPDASAILYEKYWKLHGGVEAISNRADGVGNSLLALGAQYGWQLAGMMLIGAALMRSGWLKGQFSLRHYRRTGFVLVAIGVTINLPAIALQWQLDWAYRWCAFLLQMPRELSAPFQAIGYASLFYGFWPQLSRFKLVLAIACVGRMALTNYLLQTLICTTLFYHLGLFMHFDRLELLAFVIPVWLANILFSVIWLRYFRQGPVEWLWRQLTLRAAGPAISKTSR", "units": "h", "total protein half-life in vivo": 5.67}
{"monomer_sequence": "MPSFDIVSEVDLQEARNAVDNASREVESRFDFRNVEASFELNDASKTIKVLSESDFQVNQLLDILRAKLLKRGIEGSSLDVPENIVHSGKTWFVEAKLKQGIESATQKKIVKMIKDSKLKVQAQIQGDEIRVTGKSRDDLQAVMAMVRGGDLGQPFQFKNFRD [P0A8E7]", "units": "h", "total protein half-life in vivo": 5.85}
{"monomer_sequence": "MARIIVVTSGKGGVGKTTSSAAIATGLAQKGKKTVVIDFDIGLRNLDLIMGCERRVVYDFVNVIQGDATLNQALIKDKRTENLYILPASQTRDKDALTREGVAKVLDDLKAMDFEFIVCDSPAGIETGALMALYFADEAIITTNPEVSSVRDSDRILGILASKSRRAENGEEPIKEHLLLTRYNPGRVSRGDMLSMEDVLEILRIKLVGVIPEDQSVLRASNQGEPVILDINADAGKAYADTVERLLGEERPFRFIEEEKKGFLKRLFGG [P0AEZ3]", "units": "h", "total protein half-life in vivo": 4.87}

---

Each record here notes measured total protein half-life in vivo.
# assay_remarks: total protein half-life in vivo (active degradation + dilution); higher = more stable protein
# setup_conditions: wild type E. coli NCM3722; growth: P-lim chemostat; doubling time 6 h
measure_name: total protein half-life in vivo

{"monomer_sequence": "MKQTQRHNGIIELVKQQGYVSTEELVEHFSVSPQTIRRDLNELAEQNLILRHHGGAALPSSSVNTPWHDRKATQTEEKERIARKVAEQIPNGSTLFIDIGTTPEAVAHALLNHSNLRIVTNNLNVANTLMVKEDFRIILAGGELRSRDGGIIGEATLDFISQFRLDFGILGISGIDSDGSLLEFDYHEVRTKRAIIENSRHVMLVVDHSKFGRNAMVNMGSISMVDAVYTDAPPPVSVMQVLTDHHIQLELC [P0ACL0]", "result": "5.28 h"}
{"monomer_sequence": "MSQLPGLSRETRESIAMYHLRVPQTEEELERYYQFRWEMLRKPLHQPKGSERDAWDAMAHHQMVVDEQGNLVAVGRLYINADNEASIRFMAVHPDVQDKGLGTLMAMTLESVARQEGVKRVTCSAREDAVEFFAKLGFVNQGEITTPTTTPIRHFLMIKPVATLDDILHRGDWCAQLQQAWYEHIPLSEKMGVRIQQYTGQKFITTMPETGNQNPHHTLFAGSLFSLATLTGWGLIWLMLRERHLGGTIILADAHIRYSKPISGKPHAVADLGALSGDLDRLARGRKARVQMQVEIFGDETPGAVFEGTYIVLPAKPFGPYEEGGNEEE [P0ADQ2]", "result": "5.88 h"}
{"monomer_sequence": "MSEGWNIAVLGATGAVGEALLETLAERQFPVGEIYALARNESAGEQLRFGGKTITVQDAAEFDWTQAQLAFFVAGKEATAAWVEEATNSGCLVIDSSGLFALEPDVPLVVPEVNPFVLTDYRNRNVIAVPDSLTSQLLAALKPLIDQGGLSRISVTSLISASAQGKKAVDALAGQSAKLLNGIPIDEEDFFGRQLAFNMLPLLPDSEGSVREERRIVDEVRKILQDEGLMISASVVQAPVFYGHAQMVNFEALRPLAAEEARDAFVQGEDIVLSEENEFPTQVGDASGTPHLSVGCVRNDYGMPEQVQFWSVADNVRFGGALMAVKIAEKLVQEYLY", "result": "6.16 h"}
